Entry source: patent US5635615

- assayed.target: HIV-1 nucleocapsid p7 (NC) (Human immunodeficiency virus type 1 …, UniProt P03347 P03347:378-432)
- protocol: inhibition; inhibition of NC-stimulated annealing of con+/con- DNA, 10 nM NC
- applied.conditions: tags: processed NC, 55 aa, from pBH10, gift of Agouron Pharmaceutical; label: 5'-32P
measure.name: Ki (nM)

>>> obs_value("400-23 (ssRNA) RNA: GGGAGCUCAGAAUAAACGCUCAACUGAGAACUCUCCCGCUCGCAUUAUUAACCUUCGACAUGAGGCCCGGAUCCGGC")
3
